normalized growth listing for selected compounds.
# assay text: chemical genetic growth profiling, strain panel (AID 1159580);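 also: tested at 20 µM; growth read once vehicle control cultures reached saturation at 30 °C; 1 = growth at the plate median or of vehicle wells; lower values mean less growth of the strain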
# condition label: S. cerevisiae deletion strains, growth OD, locus YDR162C, strain NBP2, active compounds read low
About 2,000 (36%) of roughly 5,500 compounds were called active. Another 18% or so got no clear call; they are omitted. The list shows a part of the results.

{"compound": "COc1cc(C)c2c(c1C=O)Oc1c(c(C)c(O)c3c1C(O)OC3=O)OC2=O (stereo unspecified)", "normalized growth": 0.941}
{"compound": "CC12CCC3C(CC=C4CC(O)CCC43C)C1CCC2=O (stereo unspecified)", "normalized growth": 0.828}
{"compound": "CCn1cc(C(=O)O)c(=O)c2ccc(C)nc21", "normalized growth": 0.936}
{"compound": "C[C@](N)(Cc1ccc(O)c(O)c1)C(=O)O", "normalized growth": 0.911}
{"compound": "O=C1N=C(O)CN1/N=C\\c1ccc(-c2ccc([N+](=O)[O-])cc2)o1", "normalized growth": 1.02}
{"compound": "COc1ccc(/C=C/c2cc(O)cc(O)c2)cc1", "normalized growth": 0.866}
{"compound": "CC12CCC(CC1)C(C)(C)O2", "normalized growth": 0.978}
{"compound": "COc1cc(/C=C/C(=O)O)ccc1O", "normalized growth": 0.992}
{"compound": "CCC(CCC(C)C1CCC2C3CC=C4C[C@@H](OC(C)=O)CC[C@]4(C)C3CC[C@]12C)C(C)C (stereo partly specified)", "normalized growth": 1}
{"compound": "CC(=O)OCC(=O)[C@@]12OC(C)(C)O[C@@H]1CC1C3C[C@H](F)C4=CC(=O)C=C[C@]4(C)[C@@]3(F)[C@@H](O)C[C@@]12C (stereo partly specified)", "normalized growth": 0.989}
{"compound": "CC1=C(/C=C/C(C)=C/C=C/C(C)=C/C(=O)O)C(C)(C)CCC1", "normalized growth": 1.01}
{"compound": "OC/C=C/c1ccc(O)c(O)c1", "normalized growth": 0.993}
{"compound": "C=CCN1CC[C@]23c4c5ccc(O)c4OC2C(=O)CC[C@@]3(O)[C@H]1C5 (stereo partly specified)", "normalized growth": 1.01}
{"compound": "CC[C@@]1(C2O[C@@H](C3O[C@@](O)(CC)[C@H](C)C[C@@H]3C)C[C@@H]2C)CC[C@H]([C@]2(C)CCC3(C[C@H](O)[C@@H](C)[C@@H]([C@H](C)[C@@H](OC)[C@H](C)C(=O)O)O3)O2)O1 (stereo partly specified)", "normalized growth": 1.01}
{"compound": "NC(=O)c1cc[n+](CC2=C(C(=O)O)N3C(=O)C(NC(=O)C(c4ccccc4)S(=O)(=O)[O-])C3SC2)cc1 (stereo unspecified)", "normalized growth": 0.981}
{"compound": "c1cc2c(cc1[C@H]1OC[C@H]3[C@@H]1CO[C@H]3c1ccc3c(c1)OCO3)OCO2", "normalized growth": 0.894}
{"compound": "COc1ccc(/C=C/c2cc(O)cc(O[C@@H]3O[C@H](CO)[C@@H](O)[C@H](O)[C@H]3O)c2)cc1O", "normalized growth": 1.02}
{"compound": "COc1cc(C(=O)O)cc(OC)c1O", "normalized growth": 1.01}
{"compound": "CCOP(=S)(OCC)Oc1ccc2c(C)c(Cl)c(=O)oc2c1", "normalized growth": 0.92}
{"compound": "O=C1OCCN1/N=C\\c1ccc([N+](=O)[O-])o1", "normalized growth": 0.771}
{"compound": "O=c1cccc2n1C[C@H]1CNCC2C1", "normalized growth": 1.01}
{"compound": "CCN(CC)CCOC(=O)C(Cc1cccc2ccccc12)CC1CCCO1 (stereo unspecified)", "normalized growth": 1.02}
{"compound": "O=C(/C=C/c1ccc(O)c(O)c1)O[C@@H]1C[C@](O)(C(=O)O)C[C@@H](O)[C@H]1O", "normalized growth": 1.01}
{"compound": "CCOP(=S)(OCC)SCCSCC", "normalized growth": 0.967}
{"compound": "c1ccc2[nH]c(-c3cscn3)nc2c1", "normalized growth": 1.01}
{"compound": "CCOC(=O)c1ccc(N)cc1", "normalized growth": 0.999}
{"compound": "CCn1cc(C(=O)O)c(=O)c2cc3c(cc21)OCO3", "normalized growth": 1.01}
{"compound": "Cc1ccc(C(C)C)cc2c(C)ccc1-2", "normalized growth": 1}
{"compound": "NCCCCN=C(N)N", "normalized growth": 1.01}
{"compound": "CC(C)C1=CC2=CCC3[C@](C)(CCC[C@]3(C)C(=O)O)C2CC1 (stereo partly specified)", "normalized growth": 0.724}
{"compound": "CC(=O)O[C@H]1C[C@@H](OC(C)=O)C(C)(C)C2C[C@@H](OC(C)=O)[C@]3(C)C(CC[C@@]4(C)[C@H](c5ccoc5)C(=O)[C@H]5O[C@]543)[C@]21C (stereo partly specified)", "normalized growth": 0.987}
{"compound": "CC(=O)Oc1cc(C)c2c(c1C(OC(C)=O)OC(C)=O)Oc1c(c(C)c(OC(C)=O)c3c1C(OC(C)=O)OC3=O)OC2=O (stereo unspecified)", "normalized growth": 0.998}
{"compound": "COc1ccc(C[C@H](N)C(=O)N[C@@H]2[C@@H](CO)OC(n3cnc4c(N(C)C)ncnc43)[C@@H]2O)cc1 (stereo partly specified)", "normalized growth": 1.02}
{"compound": "NC(=O)c1cnccn1", "normalized growth": 1.01}
{"compound": "O=c1ccn([C@@H]2O[C@H](COP(=O)(O)OP(=O)(O)OP(=O)(O)O)[C@@H](O)[C@H]2O)c(=O)[nH]1", "normalized growth": 1.01}
{"compound": "Oc1ccc(/C=C/c2cc(O)cc(O)c2)cc1", "normalized growth": 0.948}
{"compound": "COc1cc(/C=C/C(=O)O)cc(OC)c1OC", "normalized growth": 1.03}
{"compound": "CC[C@@H](C(=O)[C@@H](C)[C@@H](O)[C@H](C)[C@@H]1O[C@@H]([C@@H](CC)C(=O)O)CC[C@@H]1C)[C@H]1OC2(C=C[C@@H](O)[C@]3(CC[C@@](C)([C@H]4CC[C@](O)(CC)[C@H](C)O4)O3)O2)[C@H](C)C[C@@H]1C (stereo partly specified)", "normalized growth": 0.69}
{"compound": "CC(=O)O[C@H]1CC[C@@]2(C)C(=CCC3C2CC[C@@]2(C)C3CC[C@@H]2C(C)CCCC(C)C)C1 (stereo partly specified)", "normalized growth": 1.02}
{"compound": "CCn1cc(C(=O)O)c(=O)c2cnc(N3CCCC3)nc21", "normalized growth": 1.01}
{"compound": "CCOP(=S)(OCC)SCSCC", "normalized growth": 0.969}

====

# assay text: chemical genetic growth profiling, strain panel (AID 1159580);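 also: tested at 20 µM; growth read once vehicle control cultures reached saturation at 30 °C; 1 = growth at the plate median or of vehicle wells; lower values mean less growth of the strain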
# condition label: S. cerevisiae deletion strains, growth OD, locus YOR069W, strain VPS5, active compounds read low
In all, about 5,500 compounds went through this assay and about 2,000 (36%) were called active. Not shown: some 18% with an inconclusive outcome. The list shows a part of the results.
reported metric: normalized growth

{"compound": "COc1cc(C(=O)O)cc(OC)c1O", "numeric readout": 0.995}
{"compound": "CN=C1CN(O)C(c2ccccc2)=c2cc(Cl)ccc2=N1", "numeric readout": 1}
{"compound": "CC[C@@H](C(=O)O)[C@@H]1O[C@@H]([C@@H](C)[C@H](O)[C@H](C)C(=O)[C@H](CC)[C@H]2O[C@]3(C=C[C@@H](O)[C@]4(CC[C@@](C)(C5CC[C@](O)(CC)[C@H](C)O5)O4)O3)[C@H](C)C[C@@H]2C)[C@@H](C)C[C@H]1C (stereo not given in full)", "numeric readout": 0.14}
{"compound": "NC(=O)c1cc[n+](CC2=C(C(=O)O)N3C(=O)C(NC(=O)C(c4ccccc4)S(=O)(=O)[O-])C3SC2)cc1 (stereo not given)", "numeric readout": 0.987}
{"compound": "O=C(O)c1cc(=O)c(O)c2c(O)c(O)ccc2c1", "numeric readout": 1}

====

# assay text: chemical genetic growth profiling, strain panel (AID 1159580);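 also: tested at 20 µM; growth read once vehicle control cultures reached saturation at 30 °C; 1 = growth at the plate median or of vehicle wells; lower values mean less growth of the strain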
# condition label: S. cerevisiae deletion strains, growth OD, locus YPR163C, strain tif3, active compounds read low
Out of some 5,500 compounds screened, about 2,000 (36%) were called active. Not shown: some 18% with an inconclusive outcome. The list shows a part of the results.
Please assign false whenever normalized growth is at or above 1, and true whenever it is below.

{"compound": "CCOC(=O)C1=C[C@]2(CC)CCCN3CCc4c(n1c1ccccc41)[C@@H]32", "group": "true"}
{"compound": "CC[C@@]1(C2O[C@@H](C3O[C@@](O)(CC)[C@H](C)C[C@@H]3C)C[C@@H]2C)CC[C@H]([C@]2(C)CCC3(C[C@H](O)[C@@H](C)[C@@H]([C@H](C)[C@@H](OC)[C@H](C)C(=O)O)O3)O2)O1 (stereo not given in full)", "group": "false"}
{"compound": "COc1cc(O)cc(/C=C/c2ccccc2)c1", "group": "true"}
{"compound": "C[C@@]12C(=O)OC(=O)[C@]1(C)C1CCC2O1", "group": "true"}
{"compound": "C#C[C@]1(O)CCC2C3CCc4cc(O)ccc4C3CC[C@@]21C (stereo not given in full)", "group": "true"}
{"compound": "COc1ccc(/C=C/c2cc(O)cc(O[C@@H]3O[C@H](CO)[C@@H](O)[C@H](O)[C@H]3O)c2)cc1O", "group": "false"}
{"compound": "c1cc2c(cc1[C@H]1OC[C@H]3[C@@H]1CO[C@H]3c1ccc3c(c1)OCO3)OCO2", "group": "true"}
